Could you please report measured Kd for the items listed next?
Target: T1, mouse PCSK9 (mouse, UniProt Q80W65 35-694, limits assumed)
T1 construct: also called mPCSK9; msPCK9
T1 sequence (Q80W65 35-694 limits assumed): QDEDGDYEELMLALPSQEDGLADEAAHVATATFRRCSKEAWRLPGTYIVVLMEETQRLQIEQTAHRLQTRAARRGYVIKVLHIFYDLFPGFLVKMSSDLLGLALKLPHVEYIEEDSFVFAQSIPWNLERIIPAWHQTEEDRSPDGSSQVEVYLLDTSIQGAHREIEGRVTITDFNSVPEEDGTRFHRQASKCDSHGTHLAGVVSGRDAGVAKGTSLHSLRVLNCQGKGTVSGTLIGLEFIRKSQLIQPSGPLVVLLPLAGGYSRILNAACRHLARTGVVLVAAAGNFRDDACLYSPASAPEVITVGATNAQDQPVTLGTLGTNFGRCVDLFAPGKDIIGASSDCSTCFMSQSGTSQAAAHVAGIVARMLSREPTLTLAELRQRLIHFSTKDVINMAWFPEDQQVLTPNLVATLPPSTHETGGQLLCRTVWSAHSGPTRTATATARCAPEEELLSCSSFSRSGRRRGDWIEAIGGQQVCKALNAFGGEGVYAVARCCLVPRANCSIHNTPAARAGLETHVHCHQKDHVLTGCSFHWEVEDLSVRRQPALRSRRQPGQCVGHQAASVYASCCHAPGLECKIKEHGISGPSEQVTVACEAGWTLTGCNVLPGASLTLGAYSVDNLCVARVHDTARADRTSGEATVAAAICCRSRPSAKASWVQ
Assay: SPR Biacore 3000, captured IgG, mPCSK9 injected, pH 5.5
Give bare numbers, in nM.

Please review the following examples before continuing.
5L1721H23_6H3 (antibody, V domains shown, Only CDRs printed; Full-length IgG) VH: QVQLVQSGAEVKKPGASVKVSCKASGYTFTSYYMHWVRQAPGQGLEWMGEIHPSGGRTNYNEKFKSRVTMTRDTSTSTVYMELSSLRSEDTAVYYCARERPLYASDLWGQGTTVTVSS VL: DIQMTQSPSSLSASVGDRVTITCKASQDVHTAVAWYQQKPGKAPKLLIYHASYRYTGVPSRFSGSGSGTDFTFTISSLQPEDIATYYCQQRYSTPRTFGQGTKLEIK | 111
5L1721H23_6L3 (antibody, V domains shown, Tested as full-length IgG; also called heavy UC-H5H23, light UC-H5L1721-6L3) VH: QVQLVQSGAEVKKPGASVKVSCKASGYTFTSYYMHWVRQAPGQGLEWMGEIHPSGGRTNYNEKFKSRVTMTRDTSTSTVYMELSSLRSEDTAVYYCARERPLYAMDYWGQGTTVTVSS VL: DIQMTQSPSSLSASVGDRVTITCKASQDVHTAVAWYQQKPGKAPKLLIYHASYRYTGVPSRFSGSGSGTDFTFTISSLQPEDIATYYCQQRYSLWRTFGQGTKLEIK | 408

Which Kd reading was recorded for the binder 6L1721H23 (antibody, V domains shown, L1L3-based mutant; Full-length IgG) VH: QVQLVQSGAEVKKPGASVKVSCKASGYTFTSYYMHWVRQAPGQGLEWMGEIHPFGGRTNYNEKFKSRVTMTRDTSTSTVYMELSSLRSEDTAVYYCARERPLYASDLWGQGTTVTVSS VL: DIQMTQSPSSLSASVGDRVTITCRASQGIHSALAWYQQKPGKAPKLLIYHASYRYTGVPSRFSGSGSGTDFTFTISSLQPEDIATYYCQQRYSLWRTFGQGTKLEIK ? 36
